Data credit: paper PMC9582194

- TARGET: cJun (60 amino acid construct encompassing the entire bZIP domain) (UniProt P05412 252-315)
- Sequence (P05412 252-315): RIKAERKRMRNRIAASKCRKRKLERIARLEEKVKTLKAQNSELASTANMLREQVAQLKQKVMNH
- ASSAY_METHOD_TEXT: CD thermal denaturation; peptide (5 μM) with cJun (5 μM); ellipticity at 222 nm, 1°C to 90°C; 20 mM potassium phosphate, 150 mM potassium fluoride, 2 mM TCEP, pH 7.4; two-state fit gives the Tm of the peptide-cJun heterodimer; duplicate experiments
- TEST_CONTEXT: both partners purified
Positions of bridges follow the written chain, without caps; N, C: chain ends. No end group written: not given here.
Parameter: Tm of the peptide-cJun heterodimer. Scope: all listed entries.
Give the number; °C is assumed, so skip it.

INSERT INTO results (protein, readout_name, quantity_unit, assay_value) VALUES
  ('Ac-EAKELVDEEDVLEEEIEQLEERNYALRKEIEDLQKQ-NH2 (linear form of the pair HW20/HW21; NΔ20 CΔ7; source: synthetic peptide (Fmoc SPPS, RP-HPLC purified)) [HW20]', 'Tm of the peptide-cJun heterodimer', '°C', 57.5),
  ('Ac-EAEELVVEEDVLEEEIEQLEERNYALRKEIEDLQ-NH2 (linear form of the pair HW16/HW17; NΔ20 CΔ9; source: synthetic peptide (Fmoc SPPS, RP-HPLC purified)) [HW16]', 'Tm of the peptide-cJun heterodimer', '°C', 53.8),
  ('Ac-EAEELVVEEDVLEEEIEQLEERNYALRKEIEDLQKQLEKL-NH2 (truncation NΔ20 CΔ3 of HW1; source: synthetic peptide (Fmoc SPPS, RP-HPLC purified)) [HW4]', 'Tm of the peptide-cJun heterodimer', '°C', 64.1),
  ('Ac-EAEELVVEEKVLEDEIEQLEERNYALRKEIEDLQKQ-NH2 (linear form of the pair HW22/HW23; NΔ20 CΔ7; source: synthetic peptide (Fmoc SPPS, RP-HPLC purified)) [HW22]', 'Tm of the peptide-cJun heterodimer', '°C', 54.9),
  ('Ac-LVVEEDVLEEEIEQLEERNYALRKEIEDLQKQLEDL-NH2 (lactam 31-35, cyclized form of the pair HW12/HW13; NΔ24 CΔ3; source: synthetic peptide (Fmoc SPPS, on-resin lactamization, RP-HPLC purified)) [HW13]', 'Tm of the peptide-cJun heterodimer', '°C', 68.3);

Let us move to another entry and its Tm of the peptide-cJun heterodimer.
[ask] Let me know recorded Tm of the peptide-cJun heterodimer for EDVLEEEIEQLEERNYALRKEIEDLQKQLEKLGAP-NH2 (truncation NΔ28 of HW1: the leucine zipper (LZ) only; also called LZ domain of HW1; source: synthetic peptide (Fmoc SPPS, RP-HPLC purified)) [HW6] , thanks.
[reply] 55.1
